# System: human PKK mRNA
# experiment-summary: Dose-dependent antisense inhibition of human PKK in HepaRG cells, 0.19-5.00 uM (Example 5)
# Type: cell-based
# study-conditions: 1.67 μM, HepaRG cells, electroporation, approximately 16 hours; Table 39
Strand notation (5' to 3'): a small letter for the sugar, then the base; units joined by * are phosphorothioate-linked, units joined directly phosphodiester-linked; [ ] holds rarer units or linkages, { } end groups; capitals alone tell only the bases. e = 2'-O-(2-methoxyethyl) (MOE); [5mC] = 5-methylcytosine; d = 2'-deoxy (DNA)

{"columns": ["substance", "system-name", "percent inhibition of PKK at 1.67 μM, %"],
 "data": [
  ["531231 (eT*eA*eT*e[5mC]*eA*d[5mC]*dT*dG*dT*dA*d[5mC]*dT*dA*dG*dT*eT*eT*e[5mC]*e[5mC]*eT) [compound 531231]", "human PKK mRNA", 90],
  ["546870 (e[5mC]*eT*eG*eT*eA*d[5mC]*d[5mC]*dT*dA*dT*dA*dA*d[5mC]*dT*d[5mC]*eT*eA*eA*e[5mC]*eA; antisense) [compound 546870]", "human PKK mRNA", 80],
  ["546876 (eG*eT*e[5mC]*e[5mC]*eT*dA*dT*dA*dT*d[5mC]*dA*d[5mC]*dT*dG*dT*eA*e[5mC]*e[5mC]*eT*eG; antisense) [compound 546876]", "human PKK mRNA", 85],
  ["547632 (antisense eT*e[5mC]*eA*e[5mC]*eT*dG*dT*d[5mC]*d[5mC]*dT*dA*dT*dA*dT*d[5mC]*eA*e[5mC]*eT*e[5mC]*eT) [compound 547632]", "human PKK mRNA", 81]
]}
